Where do these numbers come from? They come from the domain aggregation screens of Martell et al. (2025).

Reported soluble fraction (log2) values follow for various sequences
- TEST_NAME: soluble fraction after stress (log2 fold change); higher = more stays soluble; pooled small domains, quantitative proteomics
- EXPERIMENTAL_PARAMETERS: stress: pH 4
# print the numeric value only

// worked examples, soluble fraction (log2) included
BIOSEQUENCE	RESULT_TYPE	NUMERIC_RESULT
HMVSVEELLSSLDPNEATVLKLLAERSSGVDELMERSGLDFSALSEAITNLELFGYIAREMDGVYSFS	soluble fraction (log2)	-1.78
HMTDGLTVPMQGVVIRYKAKKGDKVAVGDAVAVLEAMKMEQNIFANKSGTIKEIYIKEGTTVTPGDVLMSI	soluble fraction (log2)	-0.89
HMNLTSSDIQKILSYALLADNSITLNSIEESMASLKLKKMSAEQLIELLEVSSMVLRNTNNSWSIL	soluble fraction (log2)	-1.32
HMETKPTELMLDVHKLRIGMFVYLDLGWMDHPFPLNRFKISTNAQIEQIKGLRLKQVKVMTALSDPASLL	soluble fraction (log2)	-0.637
HMSVGDLLENLIRETRAQFSAPPESLGVAEKRRFVALLSQKGGFLLKGAVSRAASVLGVSEQTVYRYLKDS	soluble fraction (log2)	0.0671
HMEYDEVVVVKQIIPKGKNTMVAHLKHLKEHGETGFLKQAVGYLKLHASEIPFSVDAVISEVH	soluble fraction (log2)	-0.0529

So what's the measured soluble fraction (log2) for this one? HMIDDPTAVILRLVSEKQVIRRDDVVKALSVTPQKAYRLLKTMTTGGLLTRSGARRTTVYGLPDARER
0.22

Could you do the same for HMGRGSEDEQMRGLAVILAEQKQIMQTLGVENEVVKPEQYINTLKRMAELNGFKDTDQFFSIPQ , please?
-0.587

Request: HMQTKNYVYFNNTENWSTVNVYVWSSKDSTYMSWPGKAMESIGNNTYRFELPNGAEYAIFNNGSAQTVD
-0.185

----------
Property: soluble fraction (log2); scope: individual sequences
- TEST_NAME: soluble fraction after stress (log2 fold change); higher = more stays soluble; pooled small domains, quantitative proteomics
- EXPERIMENTAL_PARAMETERS: stress: pH 4
Reply with the value as a number alone.

BIOSEQUENCE	NUMERIC_RESULT
HMEDSSSILNRMRKLIALLNRASEAYYKENKEIISNFEYDRLYDELLGLESRSNTVLSGSPTYKV	-1.21
HMFDDEELDTFAGRQSDSYDQQEVEQFSDVLHTMRQDEVQAWWRSLTLRGISLPDELKDEVIML	-1.6
HMNTIFSVNGPVVKVKDTKDFSMMEMVYVGEKKLIGEVIGITESFTTIQVYEVTTGLKVGEPVYTTGAPM	0.166

Then this sequence:
Field request: soluble fraction (log2) | item: HMKELASKYEISEYMKFLIENLDKSNFFYPIEKRESMINNIFSIYSKADLSKKELNMLWGMLKKLR
-1.06

----------
- TEST_NAME: soluble fraction after stress (log2 fold change); higher = more stays soluble; pooled small domains, quantitative proteomics
- EXPERIMENTAL_PARAMETERS: stress: pH 4
RESULT_TYPE: soluble fraction (log2)
Lab note: jot down the number only; don't add units.

BIOSEQUENCE	NUMERIC_RESULT
HMVPEMIRDVISKSIRDMGVLPDHMQINERIALIQSLKKQQILGIKGAVAETARQLGISVPTVYRYMKKG	-0.125

I'd like to know its soluble fraction (log2). The sequence in question is HMFQNPSQVVTTRVGELRAAIPTAQQGRITMGVAVVEDANSVRSVLISTSEPRGYLRPGVTLGPGETMV
0.106
